Measured values drawn from ChEMBL document CHEMBL1201862 for this set.

Tested on: OVCAR-4
Assay: NCI tumour cell line growth inhibition, 48 h
Active and inactive are the calls of the source. Rule as the data show it: active = GI50 up to about 1.1 µM and inactive = higher.
GI50 values for the molecules below.

CCCCOC(=O)C1CC[C@H]2[C@@H]3CCc4cc(OC(=O)c5cccc6c(=O)c7ccccc7[nH]c56)ccc4[C@H]3CC[C@]12C (some centres not stated) ... 7.78 µM (inactive)

Exercise: # get_value(readout='GI50', item= c1ccc(C2N=NN(c3ccccc3)C2N2CCCCC2)cc1 (configuration not stated) )
Solution: > 100 µM (inactive)

Exercise: Endpoint output: GI50 of COc1ccc(-c2c3ccccc3c(-c3ccc(OCCBr)cc3)c3ccccc23)cc1 . Value?
Solution: > 100 µM (inactive)

Exercise: Looking for the measured GI50 of COc1cc(/N=N\c2ccc(OC)c(S(=O)(=O)O)c2)c(C)cc1/N=N\c1ccc(/C=C/c2ccc(/N=[N+](/[O-])c3ccc(/C=C/c4ccc(/N=N/c5cc(C)c(/N=N\c6ccc(OC)c(S(=O)(=O)O)c6)cc5OC)cc4S(=O)(=O)O)c(S(=O)(=O)O)c3)cc2S(=O)(=O)O)c(S(=O)(=O)O)c1 , can you help?
Solution: > 100 µM (inactive)

Exercise: If you can, please state the reported GI50 value of Cc1c2cc[n+](C)cc2c(C)c2c1[nH]c1ccc(OC(C)C)cc12 .
Solution: 2.16 µM (inactive)

Exercise: Which GI50 reading was recorded for the molecule Cc1cccc(C)c1NC(=O)C(C#N)C1=C(Cl)C(=O)c2ccccc2C1=O (configuration not stated) ?
Solution: 16 µM (inactive)

Exercise: Which GI50 value belongs to CC(C)(CN1CCCCC1)C(/C=C/c1ccccc1)=N\NC(=O)N/N=C(/C=C/c1ccccc1)C(C)(C)CN1CCCCC1 ?
Solution: 3.93 µM (inactive)

Exercise: State the recorded GI50 for this entry: Cc1ccc(/C=N/Nc2cc(C)c3ccccc3n2)s1
Solution: 20 µM (inactive)

Exercise: Quick check: GI50 of CC1(CCCO)CCCCCC(C)(CCCO)C1=O (configuration not stated) ?
Solution: > 100 µM (inactive)

Exercise: Would you kindly share the measured GI50 for Clc1ccccc1/C=C/c1cscn1 ?
Solution: > 100 µM (inactive)

Exercise: Given the molecule c1ccc(/C(=N/Nc2ccncn2)c2ccccn2)cc1 , what is its reported GI50?
Solution: 49.1 µM (inactive)

Exercise: Record request: GI50 value, item C=CCC(C(=O)O)c1ccccc1 (configuration not stated)
Solution: > 100 µM (inactive)

---

# key: entry, value: GI50
Tested on: NCI/ADR-RES
Test: NCI tumour cell line growth inhibition, 48 h
Calls of active or inactive are those of the source. Rule as the data show it: active = GI50 up to about 1.1 µM and inactive = higher.

Completed entries (count: 3):
C/C=C(/CBr)CCC(Br)C(C)(C)Cl.C/C=C(\CBr)CCC(Br)C(C)(C)Cl (stereo unspecified) ... > 10 µM (inactive)
CSc1nc(Cl)c2c(n1)Sc1nc3cc4c(cc3n1C2O)OCO4 (stereo unspecified) ... 0.385 µM (active)
O=C(O)C(=Cc1ccc(-c2ccccc2)cc1)C(=O)O ... 13.2 µM (inactive)

Exercise: Sample O=[N+]([O-])c1ccc2[nH]c(=S)[nH]c(=S)c2c1 — what was its GI50?
Solution: > 100 µM (inactive)

Exercise: If you can, please state the reported GI50 value of CC1CCC2C(C(=O)O[C@H]3C4C=CO[C@@H](OC5OC(CO)C(O)C(O)C5O)C4[C@@]4(CO)O[C@@H]34)=CO[C@@H](OC3OC(CO)C(O)C(O)C3O)C12 (stereo partly specified) .
Solution: > 10 µM (inactive)

Exercise: I'd like to know its GI50. The compound in question is CCc1nc(N)nc(N)c1-c1ccc(N2CCOCC2)c(N=[N+]=[N-])c1
Solution: > 100 µM (inactive)
